Source: the supplement of paper PMC10567573

Would you kindly list protein stability index for each of these variants?
B1: RSAD1 (parent)
chain: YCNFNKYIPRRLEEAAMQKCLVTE

Variants of: B1
TEST SUMMARY: protein stability index of a GFP-peptide fusion (GPS, HEK-293T) (PSI 1-6); higher = more stable;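 note: lentivirally expressed fusions sorted by FACS into six bins by GFP to DsRed ratio, PSI derived from sequencing read proportions per bin multiplied by bin number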
ASSAY CONDITIONS: c terminus: a fixed tail appended
One number for each entry.

Examples with answers:
| MUTATION | protein stability index |
| --- | --- |
| N5L | 3.04 |
| L12I | 2.98 |
| R10F | 2.22 |
| P9G | 2.12 |
| P9E | 3.05 |
| E14F | 2.31 |

Go through the list and state protein stability index for each entry.
1. N5R
2. C20D

2.48
2.56

Go through the list and state protein stability index for each entry.
1. Y1D
2. T23A
3. L12R
4. I8L

2.47
1.9
2.41
2.05

Go through the list and state protein stability index for each entry.
1. L12S
2. N3I
3. K19N
4. N3M
5. N5S
6. P9Q
7. E14S
8. A15I

2.45
1.61
2.37
2.24
3.3
1.54
2.5
1.56

Go through the list and state protein stability index for each entry.
1. C20P
2. I8F

1: 1.95; 2: 2.48
